Quick list: activity at 3 µM per entry.
# MEASURED_ON: C. elegans (N2) complex I (NADH:ubiquinone oxidoreductase) (Caenorhabditis elegans, UniProt P24887+Q93873+Q94360)
# Sequence (Q94360 17-199): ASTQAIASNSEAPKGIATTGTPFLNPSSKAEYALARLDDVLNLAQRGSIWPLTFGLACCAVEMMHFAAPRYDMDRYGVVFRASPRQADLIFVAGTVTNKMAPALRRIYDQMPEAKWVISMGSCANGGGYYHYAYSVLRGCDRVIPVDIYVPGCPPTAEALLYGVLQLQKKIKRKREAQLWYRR
# Sequence (P24887 whole entry): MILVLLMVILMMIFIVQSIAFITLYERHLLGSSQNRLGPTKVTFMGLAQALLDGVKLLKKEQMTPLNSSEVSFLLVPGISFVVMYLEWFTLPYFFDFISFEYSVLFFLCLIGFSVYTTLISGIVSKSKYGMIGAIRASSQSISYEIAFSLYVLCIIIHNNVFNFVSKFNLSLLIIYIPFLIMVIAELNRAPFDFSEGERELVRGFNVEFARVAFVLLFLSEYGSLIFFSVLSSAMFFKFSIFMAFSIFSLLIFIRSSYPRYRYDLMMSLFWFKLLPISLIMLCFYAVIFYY
# Sequence (Q93873 31-482): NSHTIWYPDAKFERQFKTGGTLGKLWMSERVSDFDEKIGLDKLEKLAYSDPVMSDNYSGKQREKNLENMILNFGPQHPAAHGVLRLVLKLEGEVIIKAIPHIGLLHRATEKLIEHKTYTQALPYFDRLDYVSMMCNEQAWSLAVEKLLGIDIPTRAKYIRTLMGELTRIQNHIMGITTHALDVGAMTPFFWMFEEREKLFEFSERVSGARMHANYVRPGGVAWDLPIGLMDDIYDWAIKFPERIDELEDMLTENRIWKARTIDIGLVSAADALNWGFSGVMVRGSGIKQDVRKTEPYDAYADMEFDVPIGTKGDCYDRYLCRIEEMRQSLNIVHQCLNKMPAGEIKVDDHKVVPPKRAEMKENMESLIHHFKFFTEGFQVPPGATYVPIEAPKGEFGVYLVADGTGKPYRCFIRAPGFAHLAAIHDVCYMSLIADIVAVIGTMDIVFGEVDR
# METHOD: biochemical
# Assay type: biochemical
# CONDITION: Dose 3 µM; read-out: C. elegans mitochondrial complex I activity

# STRUCTURE_NOTATION, activity at 3 µM, %
records = [
    ("Clc1ccc(SCCCCn2cnc3ccccc32)cc1", 22),
    ("Brc1ccccc1OCCCCn1cnc2ccccc21", 12.5),
    ("Cc1ccc(SCCCCn2cnc3ccccc32)cc1", 28.6),
    ("Clc1ccc(Cn2cnc3ccccc32)c(Cl)c1", 16.1),
    ("Cc1ccccc1OCCCCn1cnc2ccccc21", 1.97),
    ("CC(C)Oc1cccc(OCCn2cnc3ccccc32)c1", 65),
    ("FC(F)(F)c1cccc(OCCCCn2cnc3ccccc32)c1", 48.6),
    ("Cc1nc2ccccc2n1CCOc1ccccc1", 60.5),
    ("Nc1nc2ccccc2n1CCOc1ccc(Br)cc1", 65),
    ("Clc1ccccc1OCCCCn1cnc2ccccc21", 8.88),
    ("Cc1nc2ccccc2n1Cc1ccc(Cl)c(Cl)c1", 11.5),
    ("Cc1cccc(OCCn2c(C)nc3ccccc32)c1", 23.4),
    ("CCCn1c(COc2ccc(C)cc2)nc2ccccc21", 96.1),
    ("Cc1ccccc1OCCCn1c(C)nc2ccccc21", 27.6),
    ("Cc1ccc(OCCn2cnc3ccccc32)cc1", 75),
    ("Cc1ccc(SCCCn2cnc3ccccc32)cc1", 8.58),
    ("Nc1nc2ccccc2n1Cc1ccc(Cl)cc1", 11.5),
    ("CCc1cc(OCCn2cnc3ccccc32)ccc1Cl", 46.8),
    ("Cc1nc2ccccc2n1CCOc1ccccc1Cl", 40.7),
    ("Clc1ccc(Cn2cnc3ccccc32)cc1Cl", 57.2),
    ("Clc1ccc(OCCn2cnc3ccccc32)c(Cl)c1", 58.5),
]
